Collected inhibition at 10 µM values appear next to each entry.
biological target: PI3K α (Homo sapiens); construct: purchased Millipore 14-602; test: Inhibitory activity to PI3K α, PI 3-Kinase (human) HTRF Assay kit; assay type: biochemical; conditions: 10 μM; read-out: % Inhibition Rate to PI3K α
Sequence (P42336 whole entry, one chain of several): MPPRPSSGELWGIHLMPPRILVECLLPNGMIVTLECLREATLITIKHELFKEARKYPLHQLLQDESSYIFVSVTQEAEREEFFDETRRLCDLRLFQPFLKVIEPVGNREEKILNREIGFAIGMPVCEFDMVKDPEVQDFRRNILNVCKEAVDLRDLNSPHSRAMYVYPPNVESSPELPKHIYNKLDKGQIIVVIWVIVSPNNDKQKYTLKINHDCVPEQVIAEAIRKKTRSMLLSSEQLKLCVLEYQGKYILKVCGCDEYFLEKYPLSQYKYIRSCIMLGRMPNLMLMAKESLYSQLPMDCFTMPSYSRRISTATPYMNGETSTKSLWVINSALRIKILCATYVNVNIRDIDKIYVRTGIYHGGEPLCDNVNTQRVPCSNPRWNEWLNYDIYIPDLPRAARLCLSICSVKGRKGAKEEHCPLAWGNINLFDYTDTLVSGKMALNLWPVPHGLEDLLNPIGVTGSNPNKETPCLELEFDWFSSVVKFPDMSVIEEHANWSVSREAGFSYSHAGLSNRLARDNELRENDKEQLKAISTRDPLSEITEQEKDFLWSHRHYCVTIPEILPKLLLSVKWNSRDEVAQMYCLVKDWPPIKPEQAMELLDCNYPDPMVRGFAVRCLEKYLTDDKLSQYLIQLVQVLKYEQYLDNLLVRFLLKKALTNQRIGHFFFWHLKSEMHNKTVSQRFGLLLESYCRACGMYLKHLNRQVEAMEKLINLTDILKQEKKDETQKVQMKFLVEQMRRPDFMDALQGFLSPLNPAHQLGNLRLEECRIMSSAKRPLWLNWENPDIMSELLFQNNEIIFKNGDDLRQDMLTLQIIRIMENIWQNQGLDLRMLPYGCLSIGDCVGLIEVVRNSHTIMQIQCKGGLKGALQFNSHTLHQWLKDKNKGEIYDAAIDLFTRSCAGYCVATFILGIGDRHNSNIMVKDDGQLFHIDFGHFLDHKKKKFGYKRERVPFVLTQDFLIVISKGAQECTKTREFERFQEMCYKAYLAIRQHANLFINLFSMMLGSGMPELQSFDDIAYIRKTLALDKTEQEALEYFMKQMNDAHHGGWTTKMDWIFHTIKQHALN
readout-kind: inhibition at 10 µM

{"columns": ["compound", "endpoint-result"],
 "data": [
  ["CCC(CC)Oc1nc(Nc2ccc3nccc(-c4ccccc4)c3c2)nc2[nH]cnc12 [MED1007-105]", "111%"],
  ["c1ccc(-c2ccnc3ccc(Nc4nc(N5CCCC5)c5nc[nH]c5n4)cc23)cc1 [MED1007-103]", "82.2%"],
  ["CC(C)Nc1nc(Nc2ccc3nccc(-c4ccccc4)c3c2)nc2[nH]cnc12 [MED1007-101]", "126%"],
  ["c1ccc(-c2ccnc3ccc(Nc4nc(NCC5CCCC5)c5nc[nH]c5n4)cc23)cc1 [MED1007-99]", "88.3%"]
]}

----------
Target: PI3Kδ (Homo sapiens)
Construct: purchased Millipore 14-604
Experiment: Inhibitory activity to PI3K δ, PI 3-Kinase (human) HTRF Assay kit
Assay type: biochemical
Conditions: 2 μM (Table 8); read-out: Inhibition rate % to PI3K delta
Method: Study on the inhibitory activity of the compounds of present invention to PI 3κα, PI3κδ and PI3κγ. PI 3-Kinase (human) HTRF™ Assay kit (Cat.33-017, Millipore) For example, 10 μL DTT is added into 500 μL 4× Reaction Buffer, and water is added to 1.5 mL. The Test compounds are dissolved with DMSO to 1 mM as storage liquid. 2 μL of each of storage liquid is added into 48 μL ddH2O, to obtain the 40 μM compounds solution containing 4% DMSO. […]
readout-kind: inhibition at 2 µM

{"columns": ["compound", "readout-kind", "endpoint-result"],
 "data": [
  ["c1cc(C2CC2)c2cc(Nc3nc(NC4CC4)c4nc[nH]c4n3)ccc2n1 [MED1007-115, dihydrate di-methanesulfonate]", "inhibition at 2 µM", "60.2%"],
  ["Oc1nc(Nc2ccc3nccc(-c4ccccc4)c3c2)nc2[nH]cnc12", "inhibition at 2 µM", "2.94%"],
  ["Cc1ccnc2ccc(Nc3nc(NC4CC4)c4nc[nH]c4n3)cc12 [MED1007-113, dihydrate di-methanesulfonate]", "inhibition at 2 µM", "37.7%"],
  ["CC(C)Oc1nc(Nc2ccc3nccc(-c4cccc(F)c4)c3c2)nc2[nH]cnc12", "inhibition at 2 µM", "59.6%"],
  ["CC(C)Oc1nc(Nc2ccc3nccc(-c4ccc(F)cc4)c3c2)nc2[nH]cnc12", "inhibition at 2 µM", "44.8%"],
  ["COc1ccc(-c2ccnc3ccc(Nc4nc(O)c5nc[nH]c5n4)cc23)cc1", "inhibition at 2 µM", "8.54%"],
  ["CC(C)Oc1nc(Nc2ccc3nccc(-c4ccccc4)c3c2)nc2[nH]cnc12", "inhibition at 2 µM", "78.6%"],
  ["CCc1ccnc2ccc(Nc3nc(NC4CC4)c4nc[nH]c4n3)cc12 [MED1007-114, dihydrate di-methanesulfonate]", "inhibition at 2 µM", "49.1%"],
  ["Oc1nc(Nc2ccc3nccc(-c4ccc5c(c4)OCO5)c3c2)nc2[nH]cnc12", "inhibition at 2 µM", "15%"],
  ["COc1ccc(-c2ccnc3ccc(Nc4nc(OC(C)C)c5nc[nH]c5n4)cc23)cc1OC", "inhibition at 2 µM", "63.3%"],
  ["CC(C)Oc1nc(Nc2ccc3nccc(-c4ccc5c(c4)OCO5)c3c2)nc2[nH]cnc12", "inhibition at 2 µM", "69%"],
  ["c1ccc(-c2ccnc3ccc(Nc4nc(N5CCOCC5)c5nc[nH]c5n4)cc23)cc1", "inhibition at 2 µM", "44%"]
]}

----------
Target: PI3Kδ (Homo sapiens, UniProt O00329)
Construct: purchased Millipore 14-604
Sequence (O00329 whole entry): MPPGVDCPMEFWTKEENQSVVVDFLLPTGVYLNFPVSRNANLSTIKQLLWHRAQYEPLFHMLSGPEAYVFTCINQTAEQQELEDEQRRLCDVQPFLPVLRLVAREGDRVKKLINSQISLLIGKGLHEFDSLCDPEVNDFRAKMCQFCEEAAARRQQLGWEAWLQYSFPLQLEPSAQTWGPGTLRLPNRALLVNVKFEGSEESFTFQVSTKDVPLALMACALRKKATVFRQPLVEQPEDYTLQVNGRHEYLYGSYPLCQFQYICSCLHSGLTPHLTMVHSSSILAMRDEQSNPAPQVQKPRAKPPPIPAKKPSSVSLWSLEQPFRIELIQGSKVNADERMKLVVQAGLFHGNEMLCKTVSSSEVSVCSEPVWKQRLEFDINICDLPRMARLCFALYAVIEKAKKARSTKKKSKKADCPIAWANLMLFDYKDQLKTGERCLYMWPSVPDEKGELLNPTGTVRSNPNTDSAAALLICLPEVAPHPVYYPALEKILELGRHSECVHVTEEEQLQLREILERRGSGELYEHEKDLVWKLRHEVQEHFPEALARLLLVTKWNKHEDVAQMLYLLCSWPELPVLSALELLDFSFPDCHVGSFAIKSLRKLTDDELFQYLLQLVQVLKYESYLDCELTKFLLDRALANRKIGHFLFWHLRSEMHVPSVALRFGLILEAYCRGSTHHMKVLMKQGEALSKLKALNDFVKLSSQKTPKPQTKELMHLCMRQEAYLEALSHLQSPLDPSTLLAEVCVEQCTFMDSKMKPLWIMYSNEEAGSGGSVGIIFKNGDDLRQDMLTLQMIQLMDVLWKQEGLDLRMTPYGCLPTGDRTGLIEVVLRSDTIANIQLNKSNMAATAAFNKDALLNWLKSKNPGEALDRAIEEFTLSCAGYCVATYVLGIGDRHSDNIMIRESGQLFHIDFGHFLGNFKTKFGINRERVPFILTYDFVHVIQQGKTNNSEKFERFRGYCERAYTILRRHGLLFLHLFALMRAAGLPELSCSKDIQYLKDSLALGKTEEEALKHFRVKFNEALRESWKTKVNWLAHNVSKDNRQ
Sequence (P27986 whole entry partner): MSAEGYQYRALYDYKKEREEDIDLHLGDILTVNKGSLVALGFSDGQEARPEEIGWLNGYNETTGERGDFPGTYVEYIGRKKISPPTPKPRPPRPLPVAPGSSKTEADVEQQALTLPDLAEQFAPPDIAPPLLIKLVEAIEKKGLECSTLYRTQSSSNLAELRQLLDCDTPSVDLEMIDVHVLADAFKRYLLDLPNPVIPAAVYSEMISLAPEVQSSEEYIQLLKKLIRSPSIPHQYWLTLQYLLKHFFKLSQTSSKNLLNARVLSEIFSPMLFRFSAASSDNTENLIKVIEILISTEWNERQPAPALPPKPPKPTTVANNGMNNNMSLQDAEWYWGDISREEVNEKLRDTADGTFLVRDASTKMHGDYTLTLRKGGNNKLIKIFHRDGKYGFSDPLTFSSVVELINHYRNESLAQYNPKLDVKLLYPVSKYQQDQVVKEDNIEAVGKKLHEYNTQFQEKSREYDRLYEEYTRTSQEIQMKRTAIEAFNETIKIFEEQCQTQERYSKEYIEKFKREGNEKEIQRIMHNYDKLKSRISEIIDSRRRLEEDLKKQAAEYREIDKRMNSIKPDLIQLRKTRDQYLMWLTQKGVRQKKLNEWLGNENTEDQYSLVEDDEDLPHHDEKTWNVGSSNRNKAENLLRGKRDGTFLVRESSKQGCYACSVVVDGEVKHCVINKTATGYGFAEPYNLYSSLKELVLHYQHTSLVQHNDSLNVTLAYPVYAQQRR
Assay: Inhibitory activity to PI3K δ, PI 3-Kinase (human) HTRF Assay kit
Format: biochemical
Details: 10 μM (Table 8); read-out: Inhibition rate % to PI3K delta
Protocol: Study on the inhibitory activity of the compounds of present invention to PI 3κα, PI3κδ and PI3κγ. PI 3-Kinase (human) HTRF™ Assay kit (Cat.33-017, Millipore) For example, 10 μL DTT is added into 500 μL 4× Reaction Buffer, and water is added to 1.5 mL. The Test compounds are dissolved with DMSO to 1 mM as storage liquid. 2 μL of each of storage liquid is added into 48 μL ddH2O, to obtain the 40 μM compounds solution containing 4% DMSO. […]

{"columns": ["compound", "inhibition at 10 µM"],
 "data": [
  ["CCc1ccnc2ccc(Nc3nc(NC4CC4)c4nc[nH]c4n3)cc12 [MED1007-114, dihydrate di-methanesulfonate]", "78.9%"],
  ["CC(C)Oc1nc(Nc2ccc3nccc(-c4cccc(F)c4)c3c2)nc2[nH]cnc12", "83.4%"],
  ["c1ccc(-c2ccnc3ccc(Nc4nc(N5CCOCC5)c5nc[nH]c5n4)cc23)cc1", "91.6%"],
  ["Oc1nc(Nc2ccc3nccc(-c4ccccc4)c3c2)nc2[nH]cnc12", "12.6%"],
  ["COC[C@H]1OC(=O)c2coc3c2[C@@]1(C)C1=C(C3=O)[C@@H]2CCC(=O)[C@@]2(C)C[C@H]1OC(C)=O [Wortmannin, reference compound]", "105%"]
]}

----------
target: PI3Kδ (Homo sapiens, UniProt O00329); construct: purchased Millipore 14-604; experiment: Inhibitory activity to PI3K δ, PI 3-Kinase (human) HTRF Assay kit; type: biochemical; details: 0.4 μM (Table 8); read-out: Inhibition rate % to PI3K delta
readout-kind: inhibition at 0.4 µM (%)

{"columns": ["compound", "endpoint-result"],
 "data": [
  ["c1ccc(-c2ccnc3ccc(Nc4nc(N5CCOCC5)c5nc[nH]c5n4)cc23)cc1", 22.6],
  ["Oc1nc(Nc2ccc3nccc(-c4ccc5c(c4)OCO5)c3c2)nc2[nH]cnc12", 4.29],
  ["COc1ccc(-c2ccnc3ccc(Nc4nc(O)c5nc[nH]c5n4)cc23)cc1", -0.76],
  ["COc1ccc(-c2ccnc3ccc(Nc4nc(OC(C)C)c5nc[nH]c5n4)cc23)cc1OC", 27.6],
  ["CCc1ccnc2ccc(Nc3nc(NC4CC4)c4nc[nH]c4n3)cc12 [MED1007-114, dihydrate di-methanesulfonate]", 28.4],
  ["CC(C)Oc1nc(Nc2ccc3nccc(-c4ccc(F)cc4)c3c2)nc2[nH]cnc12", 15.7]
]}

----------
target: PDGFR β enzyme (Homo sapiens, UniProt P09619); construct: purchased Invitrogen P3082; experiment: Inhibitory activity to PDGFR β enzyme, HTRF kinEASE TK kit; assay type: biochemical; conditions: 10 μM; read-out: Inhibition rate % (PDGFR β)
Sequence (P09619 33-1106): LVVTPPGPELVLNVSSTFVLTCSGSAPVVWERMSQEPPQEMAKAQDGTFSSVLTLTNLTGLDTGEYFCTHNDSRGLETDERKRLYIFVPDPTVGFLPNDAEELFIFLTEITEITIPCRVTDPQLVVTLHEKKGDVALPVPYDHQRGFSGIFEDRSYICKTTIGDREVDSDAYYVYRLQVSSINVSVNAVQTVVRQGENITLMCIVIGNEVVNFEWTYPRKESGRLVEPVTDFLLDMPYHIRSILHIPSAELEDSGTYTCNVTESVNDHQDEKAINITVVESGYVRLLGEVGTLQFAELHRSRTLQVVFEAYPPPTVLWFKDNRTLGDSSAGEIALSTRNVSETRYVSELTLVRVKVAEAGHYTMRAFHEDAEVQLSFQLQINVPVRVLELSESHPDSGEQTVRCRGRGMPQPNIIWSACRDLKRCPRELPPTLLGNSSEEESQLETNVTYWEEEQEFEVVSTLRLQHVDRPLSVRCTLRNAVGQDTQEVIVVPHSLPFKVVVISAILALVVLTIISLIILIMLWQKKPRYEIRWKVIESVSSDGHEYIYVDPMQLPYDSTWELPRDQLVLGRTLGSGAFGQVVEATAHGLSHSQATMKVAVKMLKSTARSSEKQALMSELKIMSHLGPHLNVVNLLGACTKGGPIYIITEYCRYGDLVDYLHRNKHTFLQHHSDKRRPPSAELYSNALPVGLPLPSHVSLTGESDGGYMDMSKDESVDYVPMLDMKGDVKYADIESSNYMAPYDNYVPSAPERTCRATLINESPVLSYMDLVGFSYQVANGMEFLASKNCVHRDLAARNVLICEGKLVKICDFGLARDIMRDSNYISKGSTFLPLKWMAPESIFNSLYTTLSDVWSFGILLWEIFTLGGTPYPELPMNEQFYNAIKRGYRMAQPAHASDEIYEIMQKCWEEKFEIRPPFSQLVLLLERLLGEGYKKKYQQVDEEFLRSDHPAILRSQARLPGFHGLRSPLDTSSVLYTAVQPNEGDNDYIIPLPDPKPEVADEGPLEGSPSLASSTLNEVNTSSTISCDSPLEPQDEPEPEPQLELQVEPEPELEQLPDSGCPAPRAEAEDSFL
Class key for inhibition at 10 µM values: lower band (below 10%), central band (10% to below 30%), upper band (30% or more)

{"columns": ["compound", "label"],
 "data": [
  ["CC(C)Oc1nc(Nc2ccc3ncccc3c2)nc2[nH]cnc12 [MED1007-34]", "upper band"],
  ["Fc1cccc(-c2ccnc3ccc(Nc4nc(NC5CC5)c5nc[nH]c5n4)cc23)c1 [MED1007-64]", "central band"],
  ["COc1ccccc1-c1ccnc2ccc(Nc3nc(NC4CC4)c4nc[nH]c4n3)cc12 [MED1007-86]", "lower band"],
  ["COCCNc1nc(Nc2ccc3nccc(-c4ccccc4)c3c2)nc2[nH]cnc12 [MED1007-68]", "central band"],
  ["NCCNc1nc(Nc2ccc3nccc(-c4ccccc4)c3c2)nc2[nH]cnc12 [MED1007-70]", "upper band"],
  ["CCOc1cccc(-c2ccnc3ccc(Nc4nc(NC5CC5)c5nc[nH]c5n4)cc23)c1 [MED1007-83]", "lower band"],
  ["c1cnc2ccc(Nc3nc(OC4CCC4)c4nc[nH]c4n3)cc2c1 [MED1007-97]", "upper band"],
  ["c1ccc(-c2ccnc3ccc(Nc4nc(NC5CCC5)c5nc[nH]c5n4)cc23)cc1 [MED1007-75]", "lower band"],
  ["COc1cccc(-c2ccnc3ccc(Nc4nc(NC5CC5)c5nc[nH]c5n4)cc23)c1 [MED1007-61]", "upper band"],
  ["COc1ccc(-c2ccnc3ccc(Nc4nc(NC5CC5)c5nc[nH]c5n4)cc23)cc1OC [MED1007-84]", "central band"],
  ["COC(=O)C1(Nc2nc(Nc3ccc4nccc(-c5ccccc5)c4c3)nc3[nH]cnc23)CC1 [MED1007-15]", "upper band"],
  ["c1cnc2ccc(Nc3nc(OC4CCCC4)c4nc[nH]c4n3)cc2c1 [MED1007-35]", "upper band"],
  ["FC(F)(F)Cn1cnc2c(NC3CC3)nc(Nc3ccc4nccc(-c5ccccc5)c4c3)nc21 [MED1007-65]", "central band"],
  ["CSc1cccc(-c2ccnc3ccc(Nc4nc(NC5CC5)c5nc[nH]c5n4)cc23)c1 [MED1007-88]", "lower band"],
  ["c1ccc(-c2ccnc3ccc(Nc4nc(OC5CCC5)c5nc[nH]c5n4)cc23)cc1 [MED1007-98]", "upper band"],
  ["OCCCNc1nc(Nc2ccc3nccc(-c4ccccc4)c3c2)nc2[nH]cnc12 [MED1007-73]", "upper band"],
  ["COc1cccc(-c2ccnc3ccc(Nc4nc(NC5CCC5)c5nc[nH]c5n4)cc23)c1 [MED1007-71]", "lower band"],
  ["c1cnc2ccc(Nc3nc(NC4CC4)c4nc[nH]c4n3)cc2c1 [XC-302, reference compound]", "upper band"],
  ["c1ccc(-c2ccnc3ccc(Nc4nc(NC5CC5)c5ncn(C6CCNCC6)c5n4)cc23)cc1 [MED1007-66]", "central band"],
  ["CSc1ccccc1-c1ccnc2ccc(Nc3nc(NC4CC4)c4nc[nH]c4n3)cc12 [MED1007-87]", "lower band"],
  ["COc1ccc(-c2ccnc3ccc(Nc4nc(NC5CC5)c5nc[nH]c5n4)cc23)cc1 [MED1007-63]", "central band"],
  ["OCCNc1nc(Nc2ccc3nccc(-c4ccccc4)c3c2)nc2[nH]cnc12 [MED1007-69]", "upper band"],
  ["c1cc(N2CCOCC2)c2cc(Nc3nc(NC4CC4)c4nc[nH]c4n3)ccc2n1 [MED1007-32]", "central band"],
  ["c1ccc(Oc2nc(Nc3ccc4nccc(N5CCNCC5)c4c3)nc3[nH]cnc23)cc1 [MED1007-54]", "upper band"],
  ["c1cc(N2CCNCC2)c2cc(Nc3nc(NC4CC4)c4nc[nH]c4n3)ccc2n1 [MED1007-33]", "central band"],
  ["c1ccc(-c2ccnc3ccc(Nc4nc(NC5CC5)c5nc[nH]c5n4)cc23)cc1 [MED1007-91, dihydrate di-methanesulfonate]", "central band"],
  ["COCCCNc1nc(Nc2ccc3nccc(-c4ccccc4)c3c2)nc2[nH]cnc12 [MED1007-67]", "central band"],
  ["Fc1ccc(-c2ccnc3ccc(Nc4nc(NC5CCC5)c5nc[nH]c5n4)cc23)cc1 [MED1007-72]", "lower band"],
  ["COC(=O)c1ccc(-c2ccnc3ccc(Nc4nc(NC5CC5)c5nc[nH]c5n4)cc23)cc1 [MED1007-59]", "lower band"],
  ["COC(=O)c1cccc(-c2ccnc3ccc(Nc4nc(NC5CC5)c5nc[nH]c5n4)cc23)c1 [MED1007-60]", "central band"]
]}
